Just for reference, ChEMBL document CHEMBL2086302 is where these values come from.

- measurement_target: Beta-2 adrenergic receptor (Homo sapiens)
- Sequence (P07550 whole entry): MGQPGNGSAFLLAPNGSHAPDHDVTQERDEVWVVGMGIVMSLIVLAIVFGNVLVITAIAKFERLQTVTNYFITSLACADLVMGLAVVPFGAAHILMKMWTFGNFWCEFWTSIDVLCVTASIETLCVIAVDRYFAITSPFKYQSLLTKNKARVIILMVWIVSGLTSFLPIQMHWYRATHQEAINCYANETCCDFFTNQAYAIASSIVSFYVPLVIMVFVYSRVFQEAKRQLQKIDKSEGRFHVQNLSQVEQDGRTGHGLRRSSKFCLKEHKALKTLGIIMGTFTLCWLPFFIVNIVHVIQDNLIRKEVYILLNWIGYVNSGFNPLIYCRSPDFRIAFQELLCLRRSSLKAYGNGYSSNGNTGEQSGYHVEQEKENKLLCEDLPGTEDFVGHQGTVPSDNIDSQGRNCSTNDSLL
- test_name: Agonist activity at beta2-adrenoceptor in human bronchial smooth-muscle cell by cAMP assay
- Type: functional
measurement_kind: EC50 (nM)
# number only, unit nM dropped from output

**Q:** Look up EC50: CCc1cc2c(cc1CC)CC(C)(NC[C@H](O)c1ccc(O)c3[nH]c(=O)ccc13)C2
**A:** 0.28

---

- measurement_target: Beta-2 adrenergic receptor (Cavia porcellus)
- Sequence (Q8K4Z4 whole entry): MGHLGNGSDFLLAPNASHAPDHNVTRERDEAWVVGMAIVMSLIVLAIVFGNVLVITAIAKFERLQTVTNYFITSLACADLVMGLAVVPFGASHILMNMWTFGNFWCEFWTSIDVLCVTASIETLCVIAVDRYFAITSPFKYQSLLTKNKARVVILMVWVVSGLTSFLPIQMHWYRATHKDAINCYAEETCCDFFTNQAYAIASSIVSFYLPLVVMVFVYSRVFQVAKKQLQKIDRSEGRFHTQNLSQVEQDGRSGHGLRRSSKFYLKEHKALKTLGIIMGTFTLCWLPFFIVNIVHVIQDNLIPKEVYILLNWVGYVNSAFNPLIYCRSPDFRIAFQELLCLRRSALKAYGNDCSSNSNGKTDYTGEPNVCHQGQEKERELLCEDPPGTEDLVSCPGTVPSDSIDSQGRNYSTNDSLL
- test_name: Agonist activity at beta2-adrenoceptor in guinea-pig tracheal-strip assessed as inhibition of electrically-stimulated muscle contraction
Listed here are compounds together with their documented pIC50.
API: returns pIC50 as number; meaning -log10 of concentration in mol/L.

CCc1cc2c(cc1CC)CC(NC[C@H](O)c1ccc(O)c3c1CCC(=O)N3)C2; 8.41

Now look at this one.
**Q:** Look up pIC50: CCc1cc2c(cc1CC)CC(NCCc1ccc(O)c3[nH]c(=O)ccc13)C2
**A:** 6.62

---

Listed here are compounds together with their documented Ki.
- measurement_target: Beta-2 adrenergic receptor (Homo sapiens)
# number only, unit nM dropped from output

Examples with their reported Ki follow.
CCc1cc2c(cc1CC)CC(C)(NC[C@H](O)c1ccc(O)c3[nH]c(=O)ccc13)C2; 0.6
CCc1cc2c(cc1CC)CC(NCCc1ccc(O)c3[nH]c(=O)ccc13)C2; 261

**Q:** Lab note: need Ki with Beta-2 adrenergic receptor (Homo sapiens) for entry O=c1[nH]c2c(O)ccc(CCNCCS(=O)(=O)CCCOCCc3ccccc3)c2s1 , please look it up.
**A:** 4

---

- Species: Homo sapiens
- test_name: Selectivity ratio of Ki for human beta1-adrenoceptor to Ki for human beta2-adrenoceptor
Listed here are compounds together with their documented Ratio Ki.
The response must contain the number and no unit.

CCc1cc2c(cc1CC)CC(C)(NC[C@H](O)c1ccc(O)c3[nH]c(=O)ccc13)C2; 3.2

**Q:** Look up Ratio Ki: Cc1c(C)c(C)c2c(c1C)CC(NC[C@H](O)c1ccc(O)c3[nH]c(=O)ccc13)C2
**A:** 2.4

**Q:** Look up Ratio Ki: CCc1cc2c(cc1CC)CC(NCC(O)c1ccc(O)c3[nH]c(=O)c(C)cc13)C2 (racemic)
**A:** 0.59

**Q:** Look up Ratio Ki: CCCCc1ccc2c(c1)CC(NC[C@H](O)c1ccc(O)c3[nH]c(=O)ccc13)C2 (stereo partly drawn)
**A:** 13.4

**Q:** Look up Ratio Ki: CCc1cc2c(cc1CC)CC(NCCc1ccc(O)c3[nH]c(=O)ccc13)C2
**A:** 1.8

**Q:** Look up Ratio Ki: O=c1[nH]c2c(O)ccc(CCNCCS(=O)(=O)CCCOCCc3ccccc3)c2s1 [SIBENADET]
**A:** 981

**Q:** Look up Ratio Ki: CCc1cc2c(cc1CC)CC(NC[C@H](O)c1ccc(O)c3c1CCC(=O)N3)C2
**A:** 4.1
